MEASURED TARGET: HLA-B*44:03
ASSAY OVERVIEW: IEDB peptide-MHC binding, purified MHC/competitive/radioactivity; filed as Kd, often an IC50 or EC50 that approximates it; bounds were set here for any values at or beyond the usual limits of such assays
STUDY CONDITIONS: source organism: Mammarenavirus machupoense
PARAMETER: Kd

Give Kd for the following sequence: NDNFLMRNV ≥ 42.5 µM

Give Kd for the following sequence: SDHLISEML ≥ 31.7 µM

Give Kd for the following sequence: PDFNSLISI ≥ 78.1 µM

* * *

MEASURED TARGET: HLA-A*68:01
ASSAY OVERVIEW: IEDB peptide-MHC binding, purified MHC/competitive/radioactivity; filed as Kd, often an IC50 or EC50 that approximates it; bounds were set here for any values at or beyond the usual limits of such assays
STUDY CONDITIONS: source organism: SARS coronavirus Tor2
PARAMETER: pKd
FYI, pKd means -log10 of a concentration in mol per litre.

Give pKd for the following sequence: SMQGAVDINR 6.85

Give pKd for the following sequence: ATVVIGTSK 7.00

Give pKd for the following sequence: VTFQGKFKK 7.88

Give pKd for the following sequence: QQWIQFMMSR 5.18

* * *

For each record, write down the corresponding Kd.
MEASURED TARGET: HLA-A*11:01
ASSAY OVERVIEW: IEDB peptide-MHC binding, purified MHC/direct/fluorescence; filed as Kd, often an IC50 or EC50 that approximates it; bounds were set here for any values at or beyond the usual limits of such assays
STUDY CONDITIONS: source organism: Escherichia coli O157:H7

Give Kd for the following sequence: REWGWRIPF ≥ 20 µM

Give Kd for the following sequence: IRNPPMVVF ≥ 20 µM

Give Kd for the following sequence: GMAEDLQSL ≥ 20 µM

* * *

MEASURED TARGET: HLA-A*24:02
ASSAY OVERVIEW: IEDB peptide-MHC binding, purified MHC/competitive/radioactivity; filed as Kd, often an IC50 or EC50 that approximates it; bounds were set here for any values at or beyond the usual limits of such assays
STUDY CONDITIONS: source organism: SARS coronavirus Tor2
pKd: −log10 of the molar value.
For each record, write down the corresponding pKd.

Give pKd for the following sequence: MSFLEKDAPY ≤ 4.15

Give pKd for the following sequence: ETLLPLTQY ≤ 4.11

Give pKd for the following sequence: TYTEIEPKL ≤ 4.53

Give pKd for the following sequence: VYHITVSQI 7.58

Give pKd for the following sequence: QYIKWPWYVW 8.61

Give pKd for the following sequence: PTLVPQEHY ≤ 4.11

Give pKd for the following sequence: SYATHHDKF ≤ 3.98

Give pKd for the following sequence: DYLVSTQEF ≤ 4.36

Give pKd for the following sequence: FIAQSKGLY ≤ 4.11

Give pKd for the following sequence: TTTGIGYQPY ≤ 4.15

Give pKd for the following sequence: NYFKKVDGI ≤ 4.69

Give pKd for the following sequence: ACADGTRHTY ≤ 4.15

Give pKd for the following sequence: RMYIFFASF 6.97

Give pKd for the following sequence: SWFITQRNF ≤ 4.40

Give pKd for the following sequence: NSGPDDQIGY ≤ 4.47

Give pKd for the following sequence: FYLYLTFYF ≤ 4.11

Give pKd for the following sequence: YSELRPDTRY ≤ 4.44
